B1: GLT8D2 (parent)
chain: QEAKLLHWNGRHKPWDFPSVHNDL

Variants of: B1
Test: protein stability index of a GFP-peptide fusion (GPS, HEK-293T) (PSI 1-6); higher = more stable;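 further: lentivirally expressed fusions sorted by FACS into six bins by GFP to DsRed ratio, PSI derived from sequencing read proportions per bin multiplied by bin number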
Conditions: c terminus: a fixed tail appended
measurement.label: protein stability index
Enter the number alone.

# example entries with known answers
QEAKLLHWNGRPKPWDFPSVHNDL [H12P] = 2.68
QEAKLLHWNGRHKPWDFPSVYNDL [H21Y] = 2.44

Entry under test: QEAKLLHWNGRHKPWDIPSVHNDL [F17I] . Its protein stability index was 3.1

Entry under test: QEAKLLHWNGVHKPWDFPSVHNDL [R11V] . Its protein stability index was 2.62

Entry under test: QEAKLLMWNGRHKPWDFPSVHNDL [H7M] . Its protein stability index was 2.56

Entry under test: QEAKLLHWLGRHKPWDFPSVHNDL [N9L] . Its protein stability index was 1.83

Entry under test: QEAKLLHWNGRHKPWDFPSVHNNL [D23N] . Its protein stability index was 1.86

Entry under test: QEAKLLHWNGRVKPWDFPSVHNDL [H12V] . Its protein stability index was 2.61

Entry under test: QEAKLLHWNGRHKHWDFPSVHNDL [P14H] . Its protein stability index was 2.63

Entry under test: MEAKLLHWNGRHKPWDFPSVHNDL [Q1M] . Its protein stability index was 2.35

Entry under test: QEAKLLHLNGRHKPWDFPSVHNDL [W8L] . Its protein stability index was 3.24

Entry under test: QEAKLLHWNGRHKPWDFPSVHFDL [N22F] . Its protein stability index was 2.08

Entry under test: QEAKLLHWNGRHKPWDFPSVHNDP [L24P] . Its protein stability index was 2.85

Entry under test: QEAKLLHWNGRHKPWDFPSVHNDF [L24F] . Its protein stability index was 2.14

Entry under test: QEAKLLHWNVRHKPWDFPSVHNDL [G10V] . Its protein stability index was 2.15

Entry under test: QEAKLLHWYGRHKPWDFPSVHNDL [N9Y] . Its protein stability index was 2.33

Entry under test: QEAKLLHQNGRHKPWDFPSVHNDL [W8Q] . Its protein stability index was 3.71

Entry under test: QEAKLLHWNGRHKEWDFPSVHNDL [P14E] . Its protein stability index was 3.16

Entry under test: QEAKLLHWNGSHKPWDFPSVHNDL [R11S] . Its protein stability index was 2.82

Entry under test: QEAKLLHWNGRHKPADFPSVHNDL [W15A] . Its protein stability index was 3.7

Entry under test: QEAKLLHWNGRHKPTDFPSVHNDL [W15T] . Its protein stability index was 3.3

Entry under test: QEAKLLHWNGRHTPWDFPSVHNDL [K13T] . Its protein stability index was 2.84
